- testSystem: T1, human TNFR2 on the cell membrane (human, UniProt P20333 23-461)
- T1 construct: whole, on cells; One molecule for all cell formats; also called TNFR2-CHO cells; CHO-TNFR2
- T1 sequence (looked up): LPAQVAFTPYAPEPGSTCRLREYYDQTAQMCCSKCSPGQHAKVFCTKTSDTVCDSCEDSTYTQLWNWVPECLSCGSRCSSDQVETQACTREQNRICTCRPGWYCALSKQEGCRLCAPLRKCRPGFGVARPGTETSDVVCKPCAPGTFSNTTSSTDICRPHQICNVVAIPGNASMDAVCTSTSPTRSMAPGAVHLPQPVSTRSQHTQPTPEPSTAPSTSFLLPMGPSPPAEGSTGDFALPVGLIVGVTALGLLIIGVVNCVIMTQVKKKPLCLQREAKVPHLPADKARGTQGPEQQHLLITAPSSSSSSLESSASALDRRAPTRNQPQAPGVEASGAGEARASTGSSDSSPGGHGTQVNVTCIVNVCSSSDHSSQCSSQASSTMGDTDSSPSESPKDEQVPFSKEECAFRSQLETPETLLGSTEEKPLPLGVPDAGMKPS
- experimentNotes: flow cytometry on TNFR2-CHO cells
Each entry below lists one item and its recorded EC50 value.
Form entry: value (nM) — number only.

Take a look at these entries with their results.
Entry anti-human TNFR2 mouse monoclonal antibody 16D2 (antibody, V domains shown) VH: EVQLQQSEPELVKPGASVKIPCKASGYTFTDYNMDWVKQSHGKSLEWIGDINPNNGVTIYNQKFKGKATLTVDKSSSTAYMELRSLTSEDTAVYYCVILEYFDYWGQGTTLTVSS VL: DIVMTQSTSSMSVSLGDTVSITCHASQGISSNIGWLQQKPGKSFKGLIYHGTKLEDGVPSRFSGSGSGADYSLTISSLESEDFADYYCVQYAQFPRTFGGGTKLEIK , EC50 reported as 38.3

Entry anti-human TNFR2 mouse monoclonal antibody 29A1 (antibody, V domains shown) VH: QVQLQQSGAEVVRPGASVTLSCKASGYTFSDYEMHWVKQTPVHGLEWIGAIDPETGDTAYNQKFKDKARVTADKSSSTAYMELRSLTSEDSAVYYCTRDIHYYGSSLSYFDYWGQGTTLTVSS VL: DIVMTQSQKFMSTSVGDRVSVTCKASQNVGTNVAWYQQKPGQSPKVMIYSASYRYSGAPDRFTGSGSGTDFTLTVNNVQSEDLAEYFCQQYKTYPYTFGGGTKLEIE , EC50 reported as 1.19

Continuing:
Entry anti-human TNFR2 mouse monoclonal antibody 7F2 (antibody, V domains shown) VH: QVTLKESGPGILQPSQTLSLTCSFSGFSLNTFGLGVGWIRQPSGKGLEWLTHIWWNDDKYYNPALKSRLTISRDTSENLVFLKIANVDTADTATYYCARIEGLRRFDYWGQGTTLTVSS VL: DIQMTQSPSSLSASLGGKVTITCKTSQDINKFIAWYQHKPGKGPRLLIHYTSTLQPGIPSRFSGSGSGRDYSFSISDLEPEDIATYYCLQYANLWAFGGGTKLEIK , EC50 reported as 2.44
